# Tested on: ENR+CD organoids
# Measurement notes: Primary screen: ATP (CellTiter-Glo 3D, CTG) cell number/viability, 2.5-D 384-well ENR+CD organoids;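 further: compounds given at plating and again on day 3 over a 6-day differentiation from ENR+CV stem-cell-enriched precursors, ATP measured on day 6, plate median as control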
# Experimental conditions: primary screen, dose 0.40 uM
Counter-ions that a name gives are not always drawn.
Dose.FC.CTG below 0.07 log2 fold change gives -1; Dose.FC.CTG at or above it gives 1.

# check: Dose.FC.CTG of `CCOC(=O)N1c2ccc(C(F)(F)F)cc2[C@@H](N(Cc2cc(C(F)(F)F)cc(C(F)(F)F)c2)C(=O)OC)C[C@H]1CC` is greater than or equal to 0.07 log2 fold change -1

# check: Dose.FC.CTG of `O=c1oc2cc(O)ccc2s1` is greater than or equal to 0.07 log2 fold change 1

# check: Dose.FC.CTG of `CCN(c1cc(-c2ccc(CN3CCOCC3)cc2)cc(C(=O)NCc2c(C)cc(C)[nH]c2=O)c1C)C1CCOCC1` is greater than or equal to 0.07 log2 fold change 1

# check: Dose.FC.CTG of `COc1cc2c(Nc3ccc(NC(=O)c4ccccc4)cc3)ncnc2cc1OCCCN1CCOCC1` is greater than or equal to 0.07 log2 fold change 1

# check: Dose.FC.CTG of `C[C@H](NC(=O)Cc1cc(F)cc(F)c1)C(=O)N[C@@H]1C(=O)N(C)c2ccccc2-c2ccccc21` is greater than or equal to 0.07 log2 fold change -1

# check: Dose.FC.CTG of `CCC(=O)Nc1cccc(Oc2nc(Nc3ccc(N4CCN(C)CC4)cc3OC)ncc2Cl)c1` is greater than or equal to 0.07 log2 fold change 1

# check: Dose.FC.CTG of CCNC(=O)[C@H]1O[C@@H](n2cnc3c(N)nc(NCCc4ccc(CCC(=O)O)cc4)nc32)[C@H](O)[C@@H]1O [CGS 21680 HCl] is greater than or equal to 0.07 log2 fold change 1

# check: Dose.FC.CTG of COc1cc(Nc2ncc(F)c(Nc3ccc4c(n3)N(COP(=O)(O)O)C(=O)C(C)(C)O4)n2)cc(OC)c1OC [Fostamatinib (R788)] is greater than or equal to 0.07 log2 fold change -1

# check: Dose.FC.CTG of `Cc1ccc2c(=O)c3cccc(CC(=O)O)c3oc2c1C` is greater than or equal to 0.07 log2 fold change -1

# check: Dose.FC.CTG of `O=C(/C=C/c1ccc(O)c(O)c1)OCCc1ccccc1` is greater than or equal to 0.07 log2 fold change -1

# check: Dose.FC.CTG of `Cc1[nH]c2ccccc2c1CCNC(=O)c1cccs1` is greater than or equal to 0.07 log2 fold change -1
